As shown below, each of these molecules has a reported DHAP kcat value.
system: Triosephosphate Isomerase from Yeast; assay type: biochemical, Saccharomyces cerevisiae; details: isomerization of DHAP; pH 7.5, 25 °C, I = 0.1 (NaCl)
MEASURED_ATTRIBUTE: DHAP kcat (s^–1)

{"MOLECULE": "Y208S (protein, UniProt P00942 2-248, looked up, variant Y208S) Triosephosphate isomerase: ARTFFVGGNFKLNGSKQSIKEIVERLNTASIPENVEVVICPPATYLDYSVSLVKKPQVTVGAQNAYLKASGAFTGENSVDQIKDVGAKWVILGHSERRSYFHEDDKFIADKTKFALGQGVGVILCIGETLEEKKAGKTLDVVERQLNAVLEEVKDWTNVVVAYEPVWAIGTGLAATPEDAQDIHASIRKFLASKLGDKAASELRILSGGSANGSNAVTFKDKADVDGFLVGGASLKPEFVDIINSRN", "MEASURED_ATTRIBUTE": "DHAP kcat", "REPORTED": 250}
{"MOLECULE": "wildtype: wildtype triosephosphate isomerase from Saccharomyces cerevisiae (yTIM) (protein, UniProt P00942 2-248, looked up) Triosephosphate isomerase: ARTFFVGGNFKLNGSKQSIKEIVERLNTASIPENVEVVICPPATYLDYSVSLVKKPQVTVGAQNAYLKASGAFTGENSVDQIKDVGAKWVILGHSERRSYFHEDDKFIADKTKFALGQGVGVILCIGETLEEKKAGKTLDVVERQLNAVLEEVKDWTNVVVAYEPVWAIGTGLAATPEDAQDIHASIRKFLASKLGDKAASELRILYGGSANGSNAVTFKDKADVDGFLVGGASLKPEFVDIINSRN", "MEASURED_ATTRIBUTE": "DHAP kcat", "REPORTED": 860}
{"MOLECULE": "S211G (protein, UniProt P00942 2-248, looked up, variant S211G) Triosephosphate isomerase: ARTFFVGGNFKLNGSKQSIKEIVERLNTASIPENVEVVICPPATYLDYSVSLVKKPQVTVGAQNAYLKASGAFTGENSVDQIKDVGAKWVILGHSERRSYFHEDDKFIADKTKFALGQGVGVILCIGETLEEKKAGKTLDVVERQLNAVLEEVKDWTNVVVAYEPVWAIGTGLAATPEDAQDIHASIRKFLASKLGDKAASELRILYGGGANGSNAVTFKDKADVDGFLVGGASLKPEFVDIINSRN", "MEASURED_ATTRIBUTE": "DHAP kcat", "REPORTED": 810}
